- System: MS2 coat protein
- Experiment Description: apparent KD of MS2 coat protein, switch OFF state (with FMN for OFF switches, without FMN for ON switches); designed switch direction (-1 OFF switch, 1 ON switch): 1; higher = weaker reporter binding
- Stated Conditions: FMN input: 0 or 200 uM; Eterna round: R93 (includes R88 designs)
Task for the reader: assign each of the following sequences its reported apparent KD of MS2 coat protein.
Give the figure together with its unit, number first.

| Biosequence | apparent KD of MS2 coat protein |
| --- | --- |
| AACAAUCUAUCUGAGGAUAUCAUAAAAAAAACAUGAGGAUCACCCAUGUGCAGGAAAACUGCAUAUGAGAAGGCAGAUAGAUUGA [SS2: 1102] | 10.6 nM |

# batch size: 3; output apparent KD of MS2 coat protein per entry
1. CUAGUUGCAUACUAGGAUAUACACUGGGUGACAUGAGGAUCACCCAUGUAAAAGCACAUUCGGUAGUAGAAGGAGUGUGCAGGUC [Ceedesbi]
2. UGGAGACAUGAGGAUCACCCAUGUGAGAAGAGGCGAGGAUAUCGAAAGAAAGAAGAGAAACGAGAAGGCGCGAGGG [salish99-SS1-043]
3. AAAAAAGAUCGAGAGGAUAUCCGAGUGGUAACAUGAGGAUCACCCAUGUGAAGAAAGGAACAUGAGGAGAAGGCUCGAUCAAAAA [viburnum 4]

// result
1: 68.8 nM; 2: 52.1 nM; 3: 18.7 nM

# batch size: 2; output apparent KD of MS2 coat protein per entry
1. AAGAAUGUUUACGAGGAUAUGUUCCGCAGAACAUGAGGAUCACCCAUGUGAACAAGAAAGGCGACGCAGAAGGCGUGAGCAAAGA [Laatreve]
2. UUUAAUUAUACGAAGGAUAUCGGUAAUUAGACAUGAGGAUCACCCAUGUUAUAUGGUUAAAUAUUCGAGAAGGUCGCGGGUGAAC [JR_SS002_Sub507]

// result
1. 324 nM
2. 33.6 nM

Reference source for all entries: the supplement of paper PMC9170038
